Biological target: SARS-CoV-2 3CL-Pro (Severe acute respiratory syndrome coronavirus 2, UniProt P0DTD1)
Construct: SARS-CoV-2 main protease (3CL-Pro), also termed M-Pro
Assay: biochemical
pIC50: −log10 of the molar value. Structures can show the parent of a compound that is named as a salt.
I would appreciate it if you labelled entries satisfied when pIC50 is 7 or higher, otherwise not satisfied.

Solved entries (count: 5):
molecule="On1ccccc1=S [compound 48, 1-hydroxypyridine-2-thione]" class=satisfied
molecule="CC(C)[C@H](NC(=O)[C@H](CCC(=O)O)NC(=O)[C@H](CC(=O)O)NC(=O)OCc1ccccc1)C(=O)N[C@@H](CC(=O)O)C(=O)CF [compound 40]" class=satisfied
molecule="Cc1ccc(S(=O)(=O)N[C@@H](Cc2ccccc2)C(=O)C(=O)CCl)cc1 [compound 21]" class="not satisfied"
molecule="C=CC1=C(C)C2=Cc3c(C=C)c(C)c4[n]3[Fe]([Cl])[n]3c(c(C)c(CCC(=O)O)c3=CC3=NC(=C4)C(C)=C3CCC(=O)O)=CC1=N2 [compound 74]" class="not satisfied"
molecule="Cc1ccc(-n2sc3ccccc3c2=O)cc1 [compound 12]" class=satisfied

Lookup: Item COc1cccc2c1C(=O)c1c(O)c3c(c(O)c1C2=O)C[C@@](O)(C(CO)=NNC(=O)CCCCCN1C(=O)C=CC1=O)C[C@@H]3O[C@H]1C[C@H](N)[C@H](O)[C@H](C)O1 [compound 72, hydrochloride] with pIC50 of 7 or above?
Found: not satisfied

Lookup: Item Oc1cc2c(cc1O)[C@@H]1c3ccccc3CN[C@H]1CC2 (relative stereo) [compound 77] with pIC50 of 7 or above?
Found: not satisfied

Lookup: Item CCOc1cc(C(Nc2cc(C)ccn2)c2ccc3cccnc3c2O)ccc1OC (centres unmarked) [compound 63] with pIC50 of 7 or above?
Found: not satisfied

###

Molecular target: SARS-CoV-2 3CL-Pro (Severe acute respiratory syndrome coronavirus 2, UniProt P0DTD1)
Construct: SARS-CoV-2 main protease (3CL-Pro), also termed M-Pro
Experiment: biochemical
Conditions: read-out: 3CL-Pro Inhibition [%] Primary Screen (20 µM)
Listed next: entries and their corresponding inhibition at 20 µM.

Solved entries (count: 5):
compound="CCOc1cc(C(Nc2cc(C)ccn2)c2ccc3cccnc3c2O)ccc1OC (centres unmarked) [compound 63]" value=98.9%
compound="Cc1ccc(C)c(-n2sc3cc(F)ccc3c2=O)c1 [compound 11]" value=101%
compound="CC(C)[C@H](NC(=O)[C@H](CCC(=O)O)NC(=O)[C@H](CC(=O)O)NC(=O)OCc1ccccc1)C(=O)N[C@@H](CC(=O)O)C(=O)CF [compound 40]" value=100%
compound="O=C1c2c(O)cc(O)cc2O[C@H](c2cc(O)c(O)c(O)c2)[C@H]1O [compound 2]" value=99.7%
compound="O=C(CCl)c1ccccc1 [compound 56, 2-chloro-1-phenylethanone]" value=99.9%

For reference, reported inhibition at 20 µM for O=C(O)CCCCCCCCCCCCCCc1ccc(I)cc1 [compound 88, 15-(4-iodophenyl)pentadecanoic acid] stands at 95%

For reference, reported inhibition at 20 µM for O=c1sn(-c2cccc3ccccc23)c(=O)n1Cc1ccccc1 [compound 49] stands at 101%

For reference, reported inhibition at 20 µM for CN(C)S(=O)(=O)c1cccc(-n2sc3ccccc3c2=O)c1 [compound 13] stands at 101%
